Test: in vivo
Settings: rat, po
Let's look at some compounds and their measured LD50 at 336 h.
readout kind: LD50 at 336 h (mg/kg)

CC(C)Cc1ccc(C(C)C(=O)O)cc1 (single isomer, unassigned; (+)) [Ibuprofen, (+)-2-(p-isobutylphenyl)propionic acid, reference compound] :: 640
COc1ccccc1OC(=O)C(C)c1ccc(CC(C)C)cc1 (centres unmarked) [GIH, guaiacol p-isobutyl hydratropate] :: 1650
